measurement target: ClpP1P2 (Mycobacterium tuberculosis (strain ATCC 25618 / H37Rv), UniProt P9WPC3+P9WPC5, M95W)
assay explanation: Inhibition of Mtb ClpP1 M95W mutant expressed in Escherichia coli BL21(DE3)
measured metric: IC50
A complete answer gives the number and then names the unit.

Give the value of IC50 reported for the following: COc1cc2c(Oc3ccc4[nH]c(C)cc4c3F)ncnc2cc1OCCCN1CCCC1 7.5 µM

---

measurement target: ClpP1P2 (Mycobacterium tuberculosis (strain ATCC 25618 / H37Rv), UniProt P9WPC3+P9WPC5, M95L)
assay explanation: Inhibition of Mtb ClpP1 M95L mutant expressed in Escherichia coli BL21(DE3)
measured metric: pIC50
Scale for pIC50: -log10 of concentration given in mol/L; no unit attached.

Give the value of pIC50 reported for the following: COc1cc2c(Oc3ccc4[nH]c(C)cc4c3F)ncnc2cc1OCCCN1CCCC1 4.63
